tested on: ACHN renal; test: NCI tumour cell line growth inhibition, 48 h
Quick list: TGI per entry.

Example entries begin here.
{"compound": "COc1ccc(C(C#N)NC23CC4CC(CC(C4)C2)C3)cc1OC (stereo not given)", "TGI": "> 100 µM"}
{"compound": "CNC(=O)CCNC(=O)CCC(=O)N(C)C", "TGI": "> 100 µM"}
{"compound": "CC(C)(C)N/N=C(\\Cc1occc(=O)c1O)C(=O)Nc1ccc([N+](=O)[O-])cc1[N+](=O)[O-]", "TGI": "> 100 µM"}
{"compound": "N=Nc1c(OC(=O)Nc2ccccc2)[nH]c2ccccc12", "TGI": "36.6 µM"}
{"compound": "CC(=O)Nc1ccc(-c2c3nc(c(-c4cc5ccccc5[n+](C)c4)c4ccc([nH]4)c(-c4ccc(NC(C)=O)cc4)c4nc(c(-c5cc6ccccc6[n+](C)c5)c5ccc2[nH]5)C=C4)C=C3)cc1", "TGI": "26.6 µM"}

Recorded result, "CN(Cc1cnc(N)nc1N)c1ccc(C(=O)O)cc1" , TGI: > 100 µM

// TGI value for CCOC(=O)C1=C(C)NC2SC(=O)/C(=C\c3ccccc3Cl)N2C1c1ccccc1 (stereo not given) : > 100 µM

Quick note, TGI for "COc1cccc(C(=O)Nc2ccc(CN3CCc4nc5cc(OC)c(OC)cc5cc43)cc2)c1" landed at > 100 µM

----------
test system: COLO 205 colon; test: NCI tumour cell line growth inhibition, 48 h
measurement.kind: TGI

Study these solved cases before continuing.
{"compound": "N#Cc1nc(C2CC2)oc1N", "TGI": "> 100 µM"}
{"compound": "COC(=O)c1ccccc1/C=C1/Cc2cccc(C)c2C1=O", "TGI": "> 100 µM"}

# COc1ccc(NS(=O)c2ccc(-c3ccccc3)cc2)cc1 (stereo not given) with COLO 205 colon: TGI is > 100 µM

# lookup: "CC1=NN(c2nc(N)nc(/C(C#N)=C/c3ccc([N+](=O)[O-])o3)n2)C(C)(C)C1" on COLO 205 colon, TGI = 3.02 µM

// returns TGI for "Cc1nc(Cl)c(Cl)c(Cl)n1" with COLO 205 colon; value = 1.42 µM

Response field TGI (COLO 205 colon) for item "Cc1csc(/C=N/NC(=O)c2nnn(-c3ccnc4c(C(F)(F)F)cccc34)c2C)c1" : > 100 µM

----------
test system: OVCAR-3 ovarian; test: NCI tumour cell line growth inhibition, 48 h
measurement.kind: TGI (µM)
I only need the number, in µM, no unit after it.

{"compound": "Cc1cc(N2CCN(C)CC2)nc(NCc2cc(Nc3ccnc4cc(Cl)ccc34)ccc2F)n1", "measured.on": "OVCAR-3 ovarian", "measurement.kind": "TGI", "unit.tag": "µM", "reported.result": 4.15}

For record CC(=O)NC1=C(C)C(=O)c2c(nc3n2CCC3OC(=O)c2ccccc2)C1=N (stereo unspecified) the listed TGI is 5.71

TGI recorded for this compound, "Cc1cc2cccnc2c2ncccc12" , is 10.3

----------
Entries and their TGI values follow.
test system: RPMI-8226 leukemia; assay: NCI tumour cell line growth inhibition, 48 h

{"compound": "N=CCCN(CCC=N)c1ccc(/C=C2\\CN(NC(=O)c3ccc(Cl)cc3)C(c3ccccc3)=N2)cc1", "reported.result": "53.6 µM"}

So for C=C[C@@]1(C)CCC2(O)C(CCC3C2(C)CCC[C@@]3(C)COC(=O)CC(=O)OC)C1 (stereo not given in full) , the logged TGI turned out to be 47 µM

// TGI lookup, compound = "COC(=O)Nc1nc2ccc(Oc3ccc4nc(NC(=O)OC)[nH]c4c3)cc2[nH]1" , result: > 26.7 µM

For this compound ( "CN1CCC(CNC(=O)CCCCCCCCC(=O)NCC2(c3ccccc3)CCN(C)CC2)(c2ccccc2)CC1" ), measured TGI is > 100 µM

Form field TGI, entry "COc1cc2ccccc2c2cc([N+](=O)[O-])oc12" : 14.7 µM

----------
Measured TGI, listed per entry.
test system: HT29 colon; assay: NCI tumour cell line growth inhibition, 48 h

Known TGI results, listed for orientation:
{"compound": "CO[C@H]1O[C@@H]2CO[C@@H](c3ccccc3)O[C@H]2[C@@H]2CC=CCC[C@]12O", "TGI": "> 100 µM"}
{"compound": "[N-]=[N+]=Nc1ccc(NCCCCCC(=O)ON2C(=O)CCC2=O)c([N+](=O)[O-])c1", "TGI": "> 100 µM"}
{"compound": "COC(=O)/C=C/c1cnc2c(c1)oc(=O)n2CCc1ccccn1", "TGI": "> 100 µM"}

Moving on to another compound below.
Looking up "Cc1cc(=O)oc2c(CN3CCCCC3)c(O)ccc12" , I see its TGI listed as > 100 µM

----------
Readings of TGI for the listed molecules
system: TK-10 renal; experiment: NCI tumour cell line growth inhibition, 48 h

{"molecule": "CN1CCC(CNC(=O)CCCCCCCCC(=O)NCC2(c3ccccc3)CCN(C)CC2)(c2ccccc2)CC1", "reported.result": "> 100 µM"}
{"molecule": "CCN(CC)c1ccc2c(c1)OC(=O)C(c1nnc(-c3ccc([N+](=O)[O-])cc3)o1)C2 (stereo not given)", "reported.result": "> 100 µM"}
{"molecule": "C=C[C@@H](OCOCC[Si](C)(C)C)[C@@H](CC)OC(CCCOC(=O)C(C)(C)C)OC (stereo not given in full)", "reported.result": "78.9 µM"}
{"molecule": "COc1cc(=O)oc(/C=C/C=O)c1C", "reported.result": "76.2 µM"}

We next turn to a different molecule, shown below.
The molecule C=CCN1C(=O)CC1N(CC=C)S(=O)(=O)c1ccc(C)cc1 (stereo not given) showed TGI equal to > 100 µM

----------
test system: UACC-62 melanoma; assay: NCI tumour cell line growth inhibition, 48 h
# TGI per entry

Record excerpt, results attached:
{"molecule": "COc1cc(-c2nn(-c3ccc(NC(=O)Nc4ccc(Cl)c(Cl)c4)cc3)cc2-c2ccncc2)ccc1Cl", "reported.result": "13.3 µM"}
{"molecule": "O=C(/C=C/c1ccccc1)c1c[nH]c2ccccc2c1=O", "reported.result": "18.2 µM"}
{"molecule": "COC(=O)C1=C(OC(=O)/C(=C/c2ccc(Cl)cc2Cl)c2ccc(Cl)cc2Cl)C(C(=O)OC)[C@@]2(O)[C@@H](C(=O)OC)[C@H](C)C[C@@H]1[C@@H]2C(=O)OC (some centres undefined)", "reported.result": "> 100 µM"}
{"molecule": "Nc1ccc(-c2ncc3cc(-c4cccc(-c5cc6cnc(-c7ccc(N)cc7)nc6c6ccccc56)c4)c4ccccc4c3n2)cc1", "reported.result": "> 100 µM"}
{"molecule": "COC(=O)Nc1nc2ccc(Oc3ccc4nc(NC(=O)OC)[nH]c4c3)cc2[nH]1", "reported.result": "> 100 µM"}

Item: "O=c1oc2cc(N=Cc3ccccc3Cl)ccc2c2ccccc12" | TGI: > 100 µM

Form field TGI, entry "Clc1ccccc1C(n1ncc2ccccc21)n1ncc2ccccc21" : > 10 µM

Notebook: "O=C(Cc1nc2ccccc2c(=O)n1-c1c(Cl)cccc1Cl)c1ccncc1" , TGI read as 56.6 µM

Consider CC1SC(c2ccccc2)N(Nc2c3ccccc3nc3ccccc23)C1=O (centres undefined) . Its measured TGI is > 100 µM

----------
test system: UO-31 renal; experiment: NCI tumour cell line growth inhibition, 48 h
Recorded TGI, one value per entry.

Some solved cases for reference:
{"molecule": "CCCCCCCC(=O)OC[n+]1ccc(-c2c(COC(=O)NC(C)C)c(COC(=O)NC(C)C)c3n2CCC3)cc1", "measurement.kind": "TGI", "reported.result": "> 100 µM"}
{"molecule": "COc1cc([N+](=O)[O-])c(S(=O)(=O)O)cc1NS(=O)(=O)c1ccc(C)cc1", "measurement.kind": "TGI", "reported.result": "> 100 µM"}
{"molecule": "O=C(N/C(=C\\c1ccccc1[N+](=O)[O-])c1nc2ccccc2[nH]1)c1ccccc1", "measurement.kind": "TGI", "reported.result": "> 100 µM"}
{"molecule": "Oc1ccc(Cl)cc1-c1[nH]c(=S)nc(-c2ccccc2)c1Cl", "measurement.kind": "TGI", "reported.result": "> 100 µM"}
{"molecule": "COC(=O)CCC1(C)C2CCC1(C)/C(=N/O)C2 (stereo not given)", "measurement.kind": "TGI", "reported.result": "> 100 µM"}
{"molecule": "CCCCCCCC(=O)OC[C@@H](C[As](=O)(O)O)OC(=O)CCCCCCC", "measurement.kind": "TGI", "reported.result": "17.1 µM"}

Sample "CSc1ccccc1P(c1ccccc1SC)c1ccccc1SC" ; TGI observed: > 100 µM

----------
Below, each entry is listed with its recorded TGI.
test system: T-47D breast; assay: NCI tumour cell line growth inhibition, 48 h
// units = µM; emit number, no label

{"compound": "O=C(CCCn1c(=O)c2sc3ccccc3c2n2nnc(-c3ccccc3)c12)NCCc1cnc[nH]1", "unit.tag": "µM", "TGI": 4.49}

Proceeding to the next compound to report its TGI.
Lab book: TGI of "Cc1cc(C)nc(NS(=O)(=O)c2ccc(NN=c3c4ccccc4n(C)c4ccccc34)cc2)n1" noted as 80.8
